- Test system: Candida albicans ATCC 90028
- EXPERIMENT: MIC assay (CLSI M27-A3), Candida albicans ATCC 90028
- Type: cell-based
- EXPERIMENTAL SETUP: Candida albicans, ATCC90028; second batch; 24 h, 35° C.; read-out: MIC, Candida albicans ATCC 90028
READOUT LABEL: MIC (µg/mL)
Answers are plain numbers, in µg/mL.

CCCCCOc1ccc(-c2ccc(-c3ccc(C(=O)N[C@H]4C[C@@H](O)[C@@H](O[C@@H]5CC[N+](C)(C)C5)NC(=O)[C@@H]5[C@@H](O)[C@@H](C)CN5C(=O)[C@H]([C@@H](C)O)NC(=O)[C@H]([C@H](O)[C@@H](O)c5ccc(O)cc5)NC(=O)[C@@H]5C[C@@H](O)CN5C(=O)[C@H]([C@@H](C)O)NC4=O)cc3)cc2)cc1
0.25

For each entry beneath this line, provide reported MIC.
1. CCCCCOc1ccc(-c2ccc(-c3ccc(C(=O)N[C@H]4C[C@@H](O)[C@@H](OC[C@H](C)[N+](C)(C)C)NC(=O)[C@@H]5[C@@H](O)[C@@H](C)CN5C(=O)[C@H]([C@@H](C)O)NC(=O)[C@H]([C@H](O)[C@@H](O)c5ccc(O)cc5)NC(=O)[C@@H]5C[C@@H](O)CN5C(=O)[C@H]([C@@H](C)O)NC4=O)cc3)cc2)cc1
2. CCCCCOc1ccc(-c2ccc(-c3ccc(C(=O)N[C@H]4C[C@@H](O)[C@@H](O[C@@H](C)C[N+](C)(C)C)NC(=O)[C@@H]5[C@@H](O)[C@@H](C)CN5C(=O)[C@H]([C@@H](C)O)NC(=O)[C@H]([C@H](O)[C@@H](O)c5ccc(O)cc5)NC(=O)[C@@H]5C[C@@H](O)CN5C(=O)[C@H]([C@@H](C)O)NC4=O)cc3)cc2)cc1
3. CCCCCOc1ccc(-c2ccc(-c3ccc(C(=O)N[C@H]4C[C@@H](O)[C@@H](O[C@H]5CC[N+](C)(C)C5)NC(=O)[C@@H]5[C@@H](O)[C@@H](C)CN5C(=O)[C@H]([C@@H](C)O)NC(=O)[C@H]([C@H](O)[C@@H](O)c5ccc(O)cc5)NC(=O)[C@@H]5C[C@@H](O)CN5C(=O)[C@H]([C@@H](C)O)NC4=O)cc3)cc2)cc1
4. CCCCCOc1ccc(-c2ccc(-c3ccc(C(=O)N[C@H]4C[C@@H](O)[C@@H](OC[C@H]5CCC[N+]5(C)C)NC(=O)[C@@H]5[C@@H](O)[C@@H](C)CN5C(=O)[C@H]([C@@H](C)O)NC(=O)[C@H]([C@H](O)[C@@H](O)c5ccc(O)cc5)NC(=O)[C@@H]5C[C@@H](O)CN5C(=O)[C@H]([C@@H](C)O)NC4=O)cc3)cc2)cc1
5. CCCCCOc1ccc(-c2ccc(-c3ccc(C(=O)N[C@H]4C[C@@H](O)[C@@H](OC[C@@H](C)[N+](C)(C)C)NC(=O)[C@@H]5[C@@H](O)[C@@H](C)CN5C(=O)[C@H]([C@@H](C)O)NC(=O)[C@H]([C@H](O)[C@@H](O)c5ccc(O)cc5)NC(=O)[C@@H]5C[C@@H](O)CN5C(=O)[C@H]([C@@H](C)O)NC4=O)cc3)cc2)cc1

Key:
1: 0.25; 2: 0.25; 3: 0.25; 4: 0.25; 5: 0.25
